assay: Cytotoxicity in HepG2 cells (CellTiter-Glo); format: cell-based; settings: human, HepG2 cell line, ATP quantification
Counter-ions that a name gives are not always drawn.
Parameter: CC50 at 24 h (µM)
// return numeric value only (unit: µM, not printed)

Molecule	Units symbol	CC50 at 24 h
CCCCCCCCCCCCCCCCOP(=O)([O-])OCC[N+](C)(C)C	µM	74.9
CN1CCN2c3ccccc3Cc3ccccc3C2C1 (stereo not shown)	µM	157
CN1CCC(=C2c3ccccc3C=Cc3ccccc32)CC1	µM	172
CN(C)CCN(Cc1ccc(Cl)cc1)c1ccccn1	µM	140
C[C@@H]1[C@H](O)[C@@H](C)/C=C/C=C/C=C/C=C/C=C/C=C/C=C/[C@H](O[C@@H]2O[C@H](C)[C@@H](O)[C@H](N)[C@@H]2O)C[C@@H]2O[C@](O)(C[C@@H](O)C[C@@H](O)[C@H](O)CC[C@@H](O)C[C@@H](O)CC(=O)O[C@H]1C)C[C@H](O)[C@H]2C(=O)O	µM	16.3

# lookup: CC50 at 24 h of c1ccc2c(c1)Sc1ccccc1N2CC1CN2CCC1CC2 (stereo not shown)
50.3

Same again, this time with CN1CCCC(n2nc(Cc3ccc(Cl)cc3)c3ccccc3c2=O)CC1 (stereo not shown)
45.1

What about this molecule? CN(C)CC[C@@H](c1ccc(Cl)cc1)c1ccccn1 [Dexchlorpheniramine maleate]
177

Same question, Cc1ccc(/C(=C\CN2CCCC2)c2ccccn2)cc1 this time
390

Let us now turn to CN1CCC(=C2c3ccccc3CC(=O)c3sccc32)CC1
282
